System: HOP-62 NSCLC
Experiment: NCI-60 one-dose screen, 48 h (100 = growth as untreated, 0 = no growth, -100 = all killed)
Conditions: 10 µM unless noted
The panel holds about 83,000 compounds, 20% with a hit somewhere; the sample as a whole holds those more often.
# cutoff 60% applies to growth; >= gives True, < gives False

For orientation, consider the following solved cases.
>>> classification("S=C(Nc1ccccc1)c1ccccn1")
"True"
>>> classification("COc1cc(C2=NN(C(C)=O)C(c3cccc(Nc4ccnc5cc(C(F)(F)F)ccc45)c3)C2)cc(OC)c1OC (stereo not given)")
"True"
>>> classification("Cc1c(Cl)cccc1NC(=O)c1sc2nc3c(cc2c1N)COCC3")
"False"
>>> classification("Cc1c(Cl)cccc1NC(=O)c1sc2nc3c(cc2c1N)CCCCCC3")
"False"
>>> classification("O=C(Nc1cccc(-c2cccc(F)c2)c1)C1CCN(Cc2cccc3cccnc23)CC1")
"True"
>>> classification("O=C(Nc1ccc2ncnc(Nc3ccc(F)c(Cl)c3)c2c1)c1ccccc1")
"True"

INPUT: Record "O=C(CN1N=C(c2ccc(F)cc2)CCC1=O)Nc1nc2ccccc2s1" ; criterion: growth no lower than 60%. Met?
OUTPUT: False

INPUT: Record: "COc1ccc(Nc2nc(SCC(C)C)nc(-c3ccc(F)cc3)c2C#N)cc1"
OUTPUT: True

INPUT: Check "Cc1ccc(C2=N[C@H]3CCC[C@@H]3N(c3ccccc3)C(C(Cl)Cl)=N2)cc1" too.
OUTPUT: True

INPUT: Moving on to the next molecule: CCCCc1nc(Cl)c(C2CC(c3ccc(Cl)cc3)=NN2c2cc(Cl)cc(Cl)c2)[nH]1 (stereo not given)
OUTPUT: False

----------
Test system: MDA-MB-231 breast
Assay: NCI-60 one-dose screen, 48 h (100 = growth as untreated, 0 = no growth, -100 = all killed)
Conditions: 10 µM unless noted
The panel holds about 83,000 compounds, 20% with a hit somewhere; the sample as a whole holds those more often.
Measured growth values are reported for all entries that follow.
Report the value in % with no unit label.

Example entries begin here.
>>> recorded_result("COc1ccc2nc(-c3ccc(OC)c(OC)c3)cc(-c3nnc(SCC(=O)Nc4ccc(/C(C)=N\\O)cc4)n3-c3ccccc3)c2c1")
40.2
>>> recorded_result("COc1cc(/C=C/CO)cc(OC)c1O[C@@H]1O[C@H](CO)[C@@H](O)[C@H](O)[C@H]1O")
90.2

Now look at this entry.
INPUT: # query: growth of entry "O=C(CSC(=S)N1CCCCC1)Nc1ccccc1"
OUTPUT: 103

----------
Test system: HOP-92 NSCLC
Experiment: NCI-60 one-dose screen, 48 h (100 = growth as untreated, 0 = no growth, -100 = all killed)
Settings: 10 µM unless noted
The panel holds about 83,000 compounds, 20% with a hit somewhere; the sample as a whole holds those more often.
Recorded measurements of growth, one per entry
Entry rule: numbers only, all in %.

Check out these entries, answers already filled in.
>>> recorded_result("COc1ccc2nc(-c3ccc(OC)c(OC)c3)cc(-c3nnc(SCC(=O)Nc4ccc(/C(C)=N\\O)cc4)n3-c3ccccc3)c2c1")
61.6
>>> recorded_result("Nc1ccc2c(c1)C(=O)C(=O)c1c-2nc2ccccn12")
-21.4
>>> recorded_result("COc1ccc(C(C)c2cc(OC)c(OC)c(OC)c2)cc1 (stereo not given)")
49
>>> recorded_result("Cc1cccc(NC(=O)c2sc3nc4c(cc3c2N)CN(Cc2ccccc2)CC4)c1C")
35.2

INPUT: Quick one: growth for "Oc1ccccc1-c1nc2c3ccccc3c3ccccc3c2o1" ?
OUTPUT: 83.8

----------
# Lookup of reported growth keyed by entry
Tested on: SR leukemia
Assay: NCI-60 one-dose screen, 48 h (100 = growth as untreated, 0 = no growth, -100 = all killed)
Details: 10 µM unless noted
About 83,000 compounds went through this panel and 20% of them were active in at least one assay; those are over-represented in the sample as a whole.
Numbers only here, please. The scale is %.

Example results:
>>> recorded_result("CC1CCCN(CCCCCOc2ccc3oc4ccccc4c(=O)c3c2)C1 (centres undefined)")
36.4
>>> recorded_result("Cc1ccc(C2=N[C@H]3CCC[C@@H]3N(c3ccccc3)C(C(Cl)Cl)=N2)cc1")
95.8
>>> recorded_result("Cc1[nH]c(N=Nc2ccccc2)nc1N=Nc1ccccc1")
23.1
>>> recorded_result("COc1cccc(NC(=O)Nc2ccc(Nc3ncnc4[nH]c(C)c(C)c34)cc2)c1")
91.1
>>> recorded_result("O=C(/C(=C/c1ccc([N+](=O)[O-])cc1)SCc1ccc(F)cc1)c1ccc(Cl)cc1")
0.0981

INPUT: Please state recorded growth (tested on SR leukemia) of "Cc1cc(Cl)cc(CN(Cc2ccccc2)Cc2c(O)ccc3ccccc23)c1O"
OUTPUT: 92.9

INPUT: Also, "CCOC(=O)c1c(C)nc2c(c1N)/C(=C/c1cccs1)C(=O)N2c1ccc(OC)cc1" please.
OUTPUT: 55.8

INPUT: Quick one: "O=[N+]([O-])c1cccc(CN(Cc2cccc([N+](=O)[O-])c2O)c2ccccc2)c1O"
OUTPUT: 55.8

INPUT: Now give it for "O=C1Nc2ccc(Cl)cc2/C1=N/c1nc(-c2ccc(F)cc2)cs1" too.
OUTPUT: 1.96

INPUT: Another molecule to check: "CC(=O)c1cc2c(N)c(C(=O)Nc3ccccn3)sc2nc1C"
OUTPUT: 69.2

----------
Tested on: A498 renal
Assay: NCI-60 one-dose screen, 48 h (100 = growth as untreated, 0 = no growth, -100 = all killed)
Settings: 10 µM unless noted
This is part of a sample that, as a whole, favours compounds with a hit. Of some 83,000 tested, about 20% had one in any assay.
Think of 80% as a floor: if growth stands on it or above, it is t; beneath it, f.

>>> classification("CC(=O)[C@@H]1CC[C@]2(C(=O)O)CC[C@]3(C)[C@H](CC[C@@H]4[C@@]5(C)Cc6c([nH]c7ccccc67)C(C)(C)[C@@H]5CC[C@]43C)[C@@H]12")
"f"
>>> classification("COc1ccccc1C(=O)/C=C/c1cc2cccc(OC)c2[nH]c1=O")
"f"
>>> classification("CC(C)(C#N)c1cc(F)cc(C(=O)Nc2cc(Nc3ncccc3-c3ncnc4nc[nH]c34)ccc2F)c1")
"f"
>>> classification("COc1ccc(/C(=N\\O)c2cc(C)c(OC)c(C)c2)cc1O")
"f"

INPUT: Is growth for O=C1CC(c2ccc(O)c(O)c2)Oc2cc(O)c([C@@H]3O[C@H](CO)[C@@H](O)[C@H](O)[C@H]3O)c(O)c21 (stereo partly specified) at or above 80%?
OUTPUT: t

INPUT: Another compound to check: "Nc1cccc(C(=O)Nc2ccc3c(O)c(N=Nc4ccc(N=Nc5ccc(S(=O)(=O)O)cc5)cc4)c(S(=O)(=O)O)cc3c2)c1"
OUTPUT: t

INPUT: Similarly, "CC(C)(C)c1ccc2oc(=O)n(SC(Cl)(Cl)Cl)c2c1" ?
OUTPUT: t

----------
The molecules listed here are annotated with their growth.
System: UACC-257 melanoma
Assay: NCI-60 one-dose screen, 48 h (100 = growth as untreated, 0 = no growth, -100 = all killed)
Details: 10 µM unless noted
This is part of a sample that, as a whole, favours compounds with a hit. Of some 83,000 tested, about 20% had one in any assay.
Quick note: give the figure in %, leave out the unit.

Look over these answered cases.
>>> recorded_result("NS(=O)(=O)c1ccc(C2C3=C(CCCC3=O)OC3=C2C(=O)c2ccccc2C3=O)cc1 (centres undefined)")
-90.3
>>> recorded_result("COc1ccc(C(=S)c2cc(OC)c(OC)c(OC)c2)cc1OC(=O)CCl")
56.7
>>> recorded_result("N#Cc1c(-c2ccc(F)cc2)nc(N/N=C/c2c[nH]c3ccccc23)nc1N1CCOCC1")
-48.8
>>> recorded_result("C#C[C@@]1(O)[C@@H](CO)O[C@@H](n2ccc3c(N)ncnc32)[C@@H]1O")
17.3
>>> recorded_result("N#Cc1ccc(N2Cc3cc(Cl)ccc3OC3=C2C(=O)N(Cc2ccc(F)cc2)C3=O)cc1")
-64

We now examine a further molecule.
INPUT: Which value of growth has been reported for "Cc1ccc(C(=O)O)o1" in the records?
OUTPUT: 103

----------
Reported growth values are given for each entry in this list.
System: NCI-H226 lung
Assay: NCI-60 one-dose screen, 48 h (100 = growth as untreated, 0 = no growth, -100 = all killed)
Details: 10 µM unless noted
Compounds without any hit were thinned out: in the full panel of roughly 83,000, 20% have a hit.
Numbers only; they are read as %.

Worked examples, 4 compounds total:
>>> recorded_result("OCCNc1nc(NCCO)nc(Nc2ccc(C3=NN(c4cc(Cl)cc(Cl)c4)C(c4ccc(C(F)(F)F)cc4)C3)cc2)n1 (stereo not given)")
80.2
>>> recorded_result("C=C1C(=O)O[C@H]2[C@H]1CC/C(C=Nc1c(N)cc(F)cc1Br)=C\\CC[C@@]1(C)O[C@@H]21")
82.9
>>> recorded_result("CCOC(=O)c1cnn(-c2nc(-c3ccc(F)cc3)c(C#N)c(N3CCOCC3)n2)c1N")
92.1
>>> recorded_result("O=S(=O)(Nc1nccs1)c1ccc(Nc2nc(-c3ccncc3)cs2)cc1")
102

Okay, next one:
INPUT: Please tell me: growth of "CCCCc1ccc(N=Nc2ccc(OCC[N+](C)(C)C)cc2)cc1" , system NCI-H226 lung?
OUTPUT: 51.9
